Hello, the source for this data is PubChem BioAssay AID743442, in case you need it.

A collection of compounds and their measured activity change, negative = cytotoxicity
# METHOD_SUMMARY: ATP-based viability loss in HEK293T cells – cell-based, CellTiter-Glo luminescence, dry powder samples, set 14, cytotoxicity control, dose response (AID 743442)
# TEST_CONTEXT: HEK293T viability, ATP luminescence (CellTiter-Glo), 72 h; at 26 µM (top of the series)
Provide only the numeric value, understood in %.

Worked cases, activity change, negative = cytotoxicity given:
COc1ccc(OCCNC(=O)c2ccccc2OCC(=O)Nc2ccc(NC(C)=O)cc2)cc1 | -1.7
CN(C(=O)COc1ccccc1C(=O)Nc1ccccc1)c1ccccc1 | -12.4
O=C(CSc1c2c(nc3ccc(Cl)cc13)CCCC2)NCC1(c2ccccc2)CCCC1 | -8.09
O=C(CSc1c2c(nc3ccc(Cl)cc13)CCCC2)NC1CC1 | -2.74
CN(C)c1ccc(NC(=O)COc2ccccc2C(=O)N2CCOCC2)cc1 | -0.871

Asked: Param item = O=C(CSc1c2c(nc3ccc(Cl)cc13)CCCC2)N1CCOCC1 ; retrieve measured activity change, negative = cytotoxicity.
Given back: -5.19

---

# METHOD_SUMMARY: ATP-based viability loss in HEK293T cells – cell-based, CellTiter-Glo luminescence, dry powder samples, set 14, cytotoxicity control, dose response (AID 743442)
# TEST_CONTEXT: HEK293T viability, ATP luminescence (CellTiter-Glo), 72 h; at 26 µM (top of the series)
EXPERIMENTAL_READOUT: activity change, negative = cytotoxicity (%)
Express your answer in %, writing the number without its unit.

CCOc1ccc(NC(=O)COc2ccc(C(=O)N3CCC(C(N)=O)CC3)cc2OC)cc1 | -5.36
O=C(COc1ccc(C(=O)NCC2CCCO2)cc1)Nc1cccc(C(F)(F)F)c1 (stereo not drawn) | -6.65

# context switch: different compound, same activity change, negative = cytotoxicity
Asked: Record request: activity change, negative = cytotoxicity value, item Cc1ccc(CNC(=O)CSc2c3c(nc4cc(Cl)ccc24)CCCC3)o1
Given back: -11.4

---

# METHOD_SUMMARY: ATP-based viability loss in HEK293T cells – cell-based, CellTiter-Glo luminescence, dry powder samples, set 14, cytotoxicity control, dose response (AID 743442)
# TEST_CONTEXT: HEK293T viability, ATP luminescence (CellTiter-Glo), 72 h; at 26 µM (top of the series)
Activity calls are given as the source filed them.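 Rule for the calls: active = cell-killing curve, signal falling, whose fitted AC50 is at most twice the top tested dose; inconclusive = flat fit with a moderate signal drop, or a poor fit; inactive = the rest.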
Overview of reported activity change, negative = cytotoxicity across a group of molecules:

As a guide, the following entries are already answered.
NC(=O)C1CCN(C(=O)c2ccc(OCC(=O)Nc3cccc(C(F)(F)F)c3)cc2)CC1 | -5.23% (inactive)
O=C(CSc1c2c(nc3ccc(Cl)cc13)CCCC2)NCc1ccc2c(c1)OCO2 | 0.001% (inactive)
O=C(CSc1cccc2cccnc12)NCc1ccco1 | -4.54% (inactive)
O=C(CSc1c2c(nc3ccc(Cl)cc13)CCCC2)NCCN1CCOCC1 | -9.3% (inactive)
O=C(CSc1c2c(nc3ccc(Cl)cc13)CCCC2)NC1CCCC1 | -7.43% (inactive)

Asked: Record request: activity change, negative = cytotoxicity value, item Cc1ccc(NC(=O)COc2ccccc2C(=O)NCCN(C)C)cc1
Given back: -1.02% (inactive)

Asked: Tell me the measured activity change, negative = cytotoxicity of O=C(CSc1c2c(nc3cc(Cl)ccc13)CCCC2)N(Cc1ccco1)C1CCCC1 , please.
Given back: -4.09% (inactive)

Asked: What value of measured activity change, negative = cytotoxicity is listed for O=C(CSc1c2c(nc3ccc(Cl)cc13)CCCC2)N1CCNC1=O ?
Given back: -2.06% (inactive)

Asked: // query activity change, negative = cytotoxicity value for entry COC(=O)CCCN(C)C(=O)c1ccc(OCC(=O)Nc2cccc(OC)c2)cc1
Given back: -4.85% (inactive)

Asked: What does the record list as activity change, negative = cytotoxicity for O=C(CSc1c2c(nc3ccc(Cl)cc13)CCCC2)NCC1CCCO1 (stereo unspecified) ?
Given back: -12.2% (inactive)

Asked: So what's the measured activity change, negative = cytotoxicity for this one? CC(Sc1c2c(nc3ccc(Cl)cc13)CCCC2)C(=O)NCc1ccco1 (stereo unspecified)
Given back: -3.71% (inactive)
